biological target: Voltage-dependent L-type calcium channel subunit alpha-1C (Rattus norvegicus); assay type: functional; also: assay procedure not described here
Sequence (P22002 whole entry): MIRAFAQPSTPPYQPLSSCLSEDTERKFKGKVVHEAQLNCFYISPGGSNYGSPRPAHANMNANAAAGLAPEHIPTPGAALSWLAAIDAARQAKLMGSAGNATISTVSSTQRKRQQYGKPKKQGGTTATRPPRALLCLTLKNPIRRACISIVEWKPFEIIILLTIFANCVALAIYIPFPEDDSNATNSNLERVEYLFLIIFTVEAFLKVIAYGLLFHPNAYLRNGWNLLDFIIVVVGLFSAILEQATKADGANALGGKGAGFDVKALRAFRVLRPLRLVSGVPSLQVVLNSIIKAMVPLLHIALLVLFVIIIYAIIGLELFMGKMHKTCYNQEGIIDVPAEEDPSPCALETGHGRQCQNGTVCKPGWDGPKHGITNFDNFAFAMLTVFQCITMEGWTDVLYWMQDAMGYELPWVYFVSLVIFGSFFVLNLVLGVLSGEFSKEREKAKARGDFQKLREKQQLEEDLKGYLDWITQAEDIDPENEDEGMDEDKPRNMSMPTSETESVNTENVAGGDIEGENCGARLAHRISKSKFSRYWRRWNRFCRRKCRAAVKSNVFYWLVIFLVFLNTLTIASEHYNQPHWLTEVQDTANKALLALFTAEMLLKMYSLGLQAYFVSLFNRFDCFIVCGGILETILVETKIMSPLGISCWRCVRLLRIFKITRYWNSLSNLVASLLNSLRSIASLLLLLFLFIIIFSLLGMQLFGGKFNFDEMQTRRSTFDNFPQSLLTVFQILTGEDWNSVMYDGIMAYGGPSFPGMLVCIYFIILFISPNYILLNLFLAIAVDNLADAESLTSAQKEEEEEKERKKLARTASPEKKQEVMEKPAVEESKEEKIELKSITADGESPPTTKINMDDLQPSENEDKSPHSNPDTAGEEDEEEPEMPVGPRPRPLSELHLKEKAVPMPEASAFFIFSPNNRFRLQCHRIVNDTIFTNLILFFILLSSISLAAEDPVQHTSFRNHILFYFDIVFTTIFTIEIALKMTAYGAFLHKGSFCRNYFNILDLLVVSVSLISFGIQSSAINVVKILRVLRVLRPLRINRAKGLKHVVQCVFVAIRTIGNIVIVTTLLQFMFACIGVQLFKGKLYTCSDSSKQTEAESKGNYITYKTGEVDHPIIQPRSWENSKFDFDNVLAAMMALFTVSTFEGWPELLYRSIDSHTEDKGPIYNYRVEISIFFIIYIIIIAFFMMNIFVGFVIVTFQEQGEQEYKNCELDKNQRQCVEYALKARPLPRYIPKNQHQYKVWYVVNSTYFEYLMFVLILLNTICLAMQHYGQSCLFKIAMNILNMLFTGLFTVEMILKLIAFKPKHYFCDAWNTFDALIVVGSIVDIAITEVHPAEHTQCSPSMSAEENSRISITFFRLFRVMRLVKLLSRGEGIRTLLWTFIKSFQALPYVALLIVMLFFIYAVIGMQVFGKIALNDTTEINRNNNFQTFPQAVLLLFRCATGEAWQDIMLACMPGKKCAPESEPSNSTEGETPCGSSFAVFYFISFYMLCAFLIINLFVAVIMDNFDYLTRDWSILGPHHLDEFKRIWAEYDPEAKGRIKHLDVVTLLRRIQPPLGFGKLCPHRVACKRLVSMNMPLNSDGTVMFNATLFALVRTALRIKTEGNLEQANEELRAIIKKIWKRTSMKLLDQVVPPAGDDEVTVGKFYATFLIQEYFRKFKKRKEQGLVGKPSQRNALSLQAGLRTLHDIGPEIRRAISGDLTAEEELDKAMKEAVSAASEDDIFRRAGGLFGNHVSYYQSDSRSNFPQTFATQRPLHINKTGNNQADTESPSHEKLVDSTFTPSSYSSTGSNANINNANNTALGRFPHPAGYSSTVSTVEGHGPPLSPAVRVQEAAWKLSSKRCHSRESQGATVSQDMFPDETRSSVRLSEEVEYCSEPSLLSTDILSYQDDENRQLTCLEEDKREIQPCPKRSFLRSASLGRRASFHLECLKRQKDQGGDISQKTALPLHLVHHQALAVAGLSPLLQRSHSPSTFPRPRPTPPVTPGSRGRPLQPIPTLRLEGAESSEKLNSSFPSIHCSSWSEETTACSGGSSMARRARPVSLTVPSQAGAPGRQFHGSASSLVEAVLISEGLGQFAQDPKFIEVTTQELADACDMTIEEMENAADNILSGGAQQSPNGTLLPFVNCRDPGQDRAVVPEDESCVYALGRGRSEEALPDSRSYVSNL
# AC50 per record follows

compound: CC(C)(N)Cc1ccc(Cl)cc1
AC50: > 10 µM
//
compound: NC[C@H]1CC[C@H](C(=O)O)CC1
AC50: > 10 µM
//
compound: CN1C(=O)CC(=O)N(c2ccccc2)c2cc(Cl)ccc21
AC50: > 10 µM
//
compound: CC(C)(Oc1ccc(C2CC2(Cl)Cl)cc1)C(=O)O (stereo not given) [CIPROFIBRATE]
AC50: > 30 µM
//
compound: CC(C(=O)O)c1ccc(N2CC=CC2)c(Cl)c1 (stereo not given)
AC50: > 10 µM
